assay: Single rising oral dose Phase 1 PK, healthy adults (young males unless stated); assay type: in vivo, human; settings: male, human, plasma, oral, 150 mg, single 150 mg; read-out: AUC0-24
Observed property: AUC(0-t) (ng·h/mL)
Note: unit ng·h/mL is implicit; provide only the numeric part.

Can you look up the measured AUC(0-t) of O=C(Nc1ccc(C[C@@H]2CC[C@H]([C@H](O)c3ccccc3)N2)cc1)[C@@H]1CCc2nccc(=O)n21 for me?
1050

* * *

assay: Multiple rising dose Phase 1 PK, healthy subjects, day 14 (young males unless stated); format: in vivo, human; conditions: male, human, plasma, oral, 200 mg, 200 mg QD, Japanese; read-out: t1/2 (converted)
Observed property: half-life (h)
Note: unit h is implicit; provide only the numeric part.

Can you look up the measured half-life of O=C(Nc1ccc(C[C@@H]2CC[C@H]([C@H](O)c3ccccc3)N2)cc1)[C@@H]1CCc2nccc(=O)n21 for me?
59.5

* * *

experiment: Multiple rising dose Phase 1 PK, healthy subjects, day 14 (young males unless stated); assay type: in vivo, human; settings: both sexes, human, urine, oral, 100 mg; elderly male and female; read-out: renal clearance CLR at steady state
Observed property: CL renal (mL/min)
Note: unit mL/min is implicit; provide only the numeric part.

Can you look up the measured CL renal of O=C(Nc1ccc(C[C@@H]2CC[C@H]([C@H](O)c3ccccc3)N2)cc1)[C@@H]1CCc2nccc(=O)n21 [Vibegron] for me?
127

* * *

experiment: Multiple rising dose Phase 1 PK, healthy subjects, day 14 (young males unless stated); type: in vivo, human; settings: male, human, plasma, oral, 400 mg, 400 mg QD; read-out: Cmax
Observed property: Cmax (ng/mL)
Note: unit ng/mL is implicit; provide only the numeric part.

Can you look up the measured Cmax of O=C(Nc1ccc(C[C@@H]2CC[C@H]([C@H](O)c3ccccc3)N2)cc1)[C@@H]1CCc2nccc(=O)n21 for me?
1400

* * *

assay: Multiple rising dose Phase 1 PK, healthy subjects, day 14 (young males unless stated); format: in vivo, human; settings: male, human, plasma, oral, 200 mg, 200 mg QD, Japanese; read-out: Cmax
Observed property: Cmax (ng/mL)
Note: unit ng/mL is implicit; provide only the numeric part.

Can you look up the measured Cmax of O=C(Nc1ccc(C[C@@H]2CC[C@H]([C@H](O)c3ccccc3)N2)cc1)[C@@H]1CCc2nccc(=O)n21 for me?
631

* * *

experiment: Single rising oral dose Phase 1 PK, healthy adults (young males unless stated); format: in vivo, human; settings: male, human, plasma, oral, 300 mg, single 300 mg
Observed property: Cmax (ng/mL)
Note: unit ng/mL is implicit; provide only the numeric part.

Can you look up the measured Cmax of O=C(Nc1ccc(C[C@@H]2CC[C@H]([C@H](O)c3ccccc3)N2)cc1)[C@@H]1CCc2nccc(=O)n21 for me?
618

* * *

assay: Multiple rising dose Phase 1 PK, healthy subjects, day 14 (young males unless stated); format: in vivo, human; conditions: male, human, plasma, oral, 25 mg, 25 mg QD; read-out: AUC0-24
Observed property: AUC(0-t)
Give your result as the value with the unit written after it.

Can you look up the measured AUC(0-t) of O=C(Nc1ccc(C[C@@H]2CC[C@H]([C@H](O)c3ccccc3)N2)cc1)[C@@H]1CCc2nccc(=O)n21 [Vibegron] for me?
164 ng·h/mL
